Every entry's value here was drawn from patent US10106559B2.

Entries and their Ratio of Jak2/Btk IC50 values values follow.
TARGET_OR_SYSTEM: UniProtKB O60674
ASSAY: Jak2 Tyrosine Kinase Assay
Assay type: biochemical
ASSAY_CONTEXT: selectivity: Jak2 IC50 divided by Btk IC50

# COMPOUND, TARGET_OR_SYSTEM, MEASUREMENT_LABEL, TEST_VALUE
records = [
    ("Cc1c(-c2c(C#N)cc(C(N)=O)c3[nH]c4cc(C(C)(C)O)ccc4c23)cccc1-n1c(=O)c2cccc(F)c2n(C)c1=O [Example 15]", "UniProtKB O60674", "Ratio of Jak2/Btk IC50 values", 2400),
    ("Cc1c(-c2c(F)cc(C(N)=O)c3[nH]c4cc(C(C)(C)O)ccc4c23)cccc1-n1c(=O)cc2c(F)cccn2c1=O [Example 41]", "UniProtKB O60674", "Ratio of Jak2/Btk IC50 values", 4000),
    ("Cc1nc(C(N)=O)c2[nH]c3cc(C(C)(C)O)ccc3c2c1-c1cccc(-n2cnc3ccccc3c2=O)c1C [Comparative Example 76, reference compound]", "UniProtKB O60674", "Ratio of Jak2/Btk IC50 values", 29),
    ("Cc1c(-c2c(F)cc(C(N)=O)c3[nH]c4cc(C(C)(C)O)ccc4c23)cccc1-n1c(=O)cc2c(F)cccn2c1=O [Example 40]", "UniProtKB O60674", "Ratio of Jak2/Btk IC50 values", 1800),
    ("Cc1c(-c2c(F)cc(C(N)=O)c3[nH]c4cc(C(C)(C)O)ccc4c23)cccc1-n1c(=O)[nH]c2cc(F)ccc2c1=O (single isomer, unassigned) [Example 51]", "UniProtKB O60674", "Ratio of Jak2/Btk IC50 values", ">6700"),
]

Quick one: Ratio of Jak2/Btk IC50 values of [2H]C([2H])([2H])n1c(=O)n(-c2cccc(-c3c(F)cc(C(N)=O)c4[nH]c5c(c34)CC[C@H](C(C)(C)O)C5)c2C)c(=O)c2cccc(F)c21 (single isomer, unassigned) [Example 62] ?
>4900

Quick one: Ratio of Jak2/Btk IC50 values of Cc1c(-c2c(F)cc(C(N)=O)c3[nH]c4cc(CCO)ccc4c23)cccc1-n1c(=O)cc2c(F)cccn2c1=O [Example 70] ?
930

Quick one: Ratio of Jak2/Btk IC50 values of Cc1c(-c2c(F)cc(C(N)=O)c3[nH]c4c(c23)CC[C@H](C(C)(C)O)C4)cccc1-n1c(=O)cc2c(F)cccn2c1=O (single isomer, unassigned) [Example 69] ?
11000

Quick one: Ratio of Jak2/Btk IC50 values of COc1ccc2c(=O)n(-c3cccc(-c4c(Cl)cc(C(N)=O)c5[nH]c6cc(C(C)(C)O)ccc6c45)c3C)c(=O)n(C)c2c1 (single isomer, unassigned) [Example 6] ?
1400

Quick one: Ratio of Jak2/Btk IC50 values of Cc1c(-c2c(Cl)cc(C(N)=O)c3[nH]c4cc(C(C)(C)O)ccc4c23)cccc1-n1c(=O)cc2sccn2c1=O [Example 38] ?
880

Quick one: Ratio of Jak2/Btk IC50 values of COc1ccc2c(=O)n(-c3cccc(-c4c(Cl)cc(C(N)=O)c5[nH]c6cc(C(C)(C)O)ccc6c45)c3C)c(=O)n(C)c2c1 (single isomer, unassigned) [Example 5] ?
>950

Quick one: Ratio of Jak2/Btk IC50 values of Cc1c(-c2c(Cl)cc(C(N)=O)c3[nH]c4cc(C(C)(C)O)ccc4c23)cccc1-n1c(=O)[nH]c2c(F)cc(F)cc2c1=O (single isomer, unassigned) [Example 48] ?
3300

====

TARGET_OR_SYSTEM: human recombinant Btk (Homo sapiens (Human), UniProt Q06187)
Sequence (Q06187 whole entry): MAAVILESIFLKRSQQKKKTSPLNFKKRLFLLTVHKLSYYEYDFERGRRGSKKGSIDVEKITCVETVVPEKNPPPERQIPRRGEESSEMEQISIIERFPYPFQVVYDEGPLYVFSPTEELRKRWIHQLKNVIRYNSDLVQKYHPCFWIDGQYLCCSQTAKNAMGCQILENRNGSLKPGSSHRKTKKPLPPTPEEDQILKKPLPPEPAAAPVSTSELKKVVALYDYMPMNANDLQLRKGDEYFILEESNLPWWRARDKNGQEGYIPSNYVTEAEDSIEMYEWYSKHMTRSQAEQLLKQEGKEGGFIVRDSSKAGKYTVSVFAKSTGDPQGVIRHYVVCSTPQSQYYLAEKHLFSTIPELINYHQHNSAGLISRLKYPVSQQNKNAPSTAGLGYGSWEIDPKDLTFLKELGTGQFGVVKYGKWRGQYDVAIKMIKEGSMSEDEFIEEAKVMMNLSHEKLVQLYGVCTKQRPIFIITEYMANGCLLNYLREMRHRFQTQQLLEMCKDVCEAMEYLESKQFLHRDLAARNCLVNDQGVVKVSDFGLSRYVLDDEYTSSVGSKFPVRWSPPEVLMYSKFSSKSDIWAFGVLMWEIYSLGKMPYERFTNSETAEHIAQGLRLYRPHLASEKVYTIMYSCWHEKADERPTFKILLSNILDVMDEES
ASSAY: Human Recombinant Btk Enzyme Assay
Entries and their pIC50 values follow.
Scale: negative log10 of molar concentration, which is what pIC50 denotes.

# COMPOUND, TARGET_OR_SYSTEM, pIC50
rows = [
    ("Cc1c(-c2c(C#N)cc(C(N)=O)c3[nH]c4cc(C(C)(C)O)ccc4c23)cccc1-n1c(=O)cc2c(Cl)cccn2c1=O (single isomer, unassigned)", "human recombinant Btk (Homo sapiens (Human), UniProt Q06187)", 9.31),
    ("Cc1c(-c2c(F)cc(C(N)=O)c3[nH]c4cc(C(C)(C)O)ccc4c23)cccc1-n1c(=O)[nH]c2c(Cl)cccc2c1=O (single isomer, unassigned) [Example 53]", "human recombinant Btk (Homo sapiens (Human), UniProt Q06187)", 8.96),
    ("Cc1c(-c2c(F)cc(C(N)=O)c3[nH]c4cc(C(C)(C)O)ccc4c23)cccc1-n1c(=O)[nH]c2cc(F)ccc2c1=O (single isomer, unassigned)", "human recombinant Btk (Homo sapiens (Human), UniProt Q06187)", 9.52),
    ("Cc1cc(C(N)=O)c2[nH]c3cc(C(C)(C)O)ccc3c2c1-c1cccc(-n2c(=O)cc3c(Cl)cccn3c2=O)c1C", "human recombinant Btk (Homo sapiens (Human), UniProt Q06187)", 9.39),
]

Consider now this further compound.
Quick one: pIC50 of Cc1c(-c2c(F)cc(C(N)=O)c3[nH]c4cc(C(C)(C)O)ccc4c23)cccc1-n1c(=O)[nH]c2c(Cl)cccc2c1=O (single isomer, unassigned) [Example 54] ?
9.46

====

TARGET_OR_SYSTEM: Jak2 tyrosine kinase (Homo sapiens (Human))
Sequence (O60674 whole entry): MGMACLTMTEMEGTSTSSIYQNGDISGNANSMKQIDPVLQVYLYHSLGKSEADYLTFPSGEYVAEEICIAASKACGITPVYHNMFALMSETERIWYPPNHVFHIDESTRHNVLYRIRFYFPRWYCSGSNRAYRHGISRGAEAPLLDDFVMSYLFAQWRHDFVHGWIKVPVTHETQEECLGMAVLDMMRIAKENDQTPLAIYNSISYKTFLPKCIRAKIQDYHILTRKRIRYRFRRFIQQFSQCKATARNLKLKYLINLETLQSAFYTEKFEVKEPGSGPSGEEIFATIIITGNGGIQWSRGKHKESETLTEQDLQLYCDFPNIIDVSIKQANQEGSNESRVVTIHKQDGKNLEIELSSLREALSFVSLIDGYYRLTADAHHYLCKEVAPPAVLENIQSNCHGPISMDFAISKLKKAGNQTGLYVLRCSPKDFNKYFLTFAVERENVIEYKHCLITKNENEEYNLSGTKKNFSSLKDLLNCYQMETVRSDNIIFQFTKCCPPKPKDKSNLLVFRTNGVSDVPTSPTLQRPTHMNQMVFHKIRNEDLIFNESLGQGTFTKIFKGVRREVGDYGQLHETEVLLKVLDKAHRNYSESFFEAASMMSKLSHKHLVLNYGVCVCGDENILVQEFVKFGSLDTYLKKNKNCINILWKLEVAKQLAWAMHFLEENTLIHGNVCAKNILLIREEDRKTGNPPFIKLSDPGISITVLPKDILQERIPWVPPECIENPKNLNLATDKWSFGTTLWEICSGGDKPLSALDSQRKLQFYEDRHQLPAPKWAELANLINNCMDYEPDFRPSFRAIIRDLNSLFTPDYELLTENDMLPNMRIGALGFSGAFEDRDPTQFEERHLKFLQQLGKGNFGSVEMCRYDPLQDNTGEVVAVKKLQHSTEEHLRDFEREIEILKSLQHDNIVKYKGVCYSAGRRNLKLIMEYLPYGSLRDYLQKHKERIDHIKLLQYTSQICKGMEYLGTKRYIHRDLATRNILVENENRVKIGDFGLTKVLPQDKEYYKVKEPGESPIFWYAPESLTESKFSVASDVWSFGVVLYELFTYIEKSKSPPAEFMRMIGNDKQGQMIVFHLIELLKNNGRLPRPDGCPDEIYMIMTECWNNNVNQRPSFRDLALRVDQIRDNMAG
ASSAY: Jak2 Tyrosine Kinase Assay
Type: biochemical
ASSAY_CONTEXT: selectivity: Jak2 IC50 divided by Btk IC50
Entries and their Ratio of Jak2/Btk IC50 values values follow.
Simply state the number, no unit and no words.

# MOLECULE, TARGET_OR_SYSTEM, Ratio of Jak2/Btk IC50 values
records = [
    ("COc1cccn2c(=O)n(-c3cccc(-c4c(Cl)cc(C(N)=O)c5[nH]c6cc(C(C)(C)O)ccc6c45)c3C)c(=O)cc12 [Example 37]", "Jak2 tyrosine kinase (Homo sapiens (Human))", 690),
    ("Cc1c(-c2c(F)cc(C(N)=O)c3[nH]c4c(c23)CC[C@H](C(C)(C)O)C4)cccc1-n1c(=O)[nH]c2c(Cl)cccc2c1=O (single isomer, unassigned) [Example 63]", "Jak2 tyrosine kinase (Homo sapiens (Human))", 24000),
]

Consider now this further molecule.
Query for Jak2 tyrosine kinase (Homo sapiens (Human)): what Ratio of Jak2/Btk IC50 values does the record show for Cc1c(-c2c(F)cc(C(N)=O)c3[nH]c4cc(C(C)(C)O)ccc4c23)cccc1-n1c(=O)[nH]c2c(F)cc(F)cc2c1=O (single isomer, unassigned) [Example 50] ?
3800
